Target: human MCH-1R (Homo sapiens, UniProt Q99705)
Sequence (Q99705 whole entry): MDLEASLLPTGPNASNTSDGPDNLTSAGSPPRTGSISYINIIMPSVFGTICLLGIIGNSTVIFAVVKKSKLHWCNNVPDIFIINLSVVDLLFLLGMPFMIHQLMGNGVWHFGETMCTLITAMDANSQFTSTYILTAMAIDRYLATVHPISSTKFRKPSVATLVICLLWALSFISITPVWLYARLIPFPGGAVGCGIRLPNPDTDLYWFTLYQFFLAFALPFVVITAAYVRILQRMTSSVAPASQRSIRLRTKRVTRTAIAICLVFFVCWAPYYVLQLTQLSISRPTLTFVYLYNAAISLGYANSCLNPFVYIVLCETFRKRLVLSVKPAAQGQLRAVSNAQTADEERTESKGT
Assay: Aequorin bioluminescence functional assay, MCH-1R
Conditions: Table 1; % Activation at 10 μM, aequorin functional assay
Where a SMILES comes first, the peptide text is derived from it. Bridges are numbered along the chain shown (N, C = ends).
Here, each record is paired with measured MCH-1R Activation % data.
metric: MCH-1R Activation %

- CSCC[C@@H]1NC(=O)[C@@H](NC(=O)[C@H](CCCNC(=N)N)NC(C)=O)CSSC[C@@H](C(N)=O)NC(=O)[C@@H]2CCCN2C(=O)[C@H](CCCNC(=N)N)NC(=O)[C@H](Cc2ccc(O)cc2)NC(=O)[C@H](C(C)C)NC(=O)[C@H](CCCNC(=N)N)NC(=O)[C@@H](Cc2ccccc2)NC(=O)[C@H](CC(C)C)NC1=O: 5%
- CC(=O)N[C@@H](CCCNC(=N)N)C(=O)N[C@H]1CSSC[C@@H](C(N)=O)NC(=O)[C@@H]2CCCN2C(=O)[C@H](CCCNC(=N)N)NC(=O)[C@H](Cc2ccc(O)cc2)NC(=O)[C@H](C(C)C)NC(=O)[C@H](CCCCNC(=N)N)NC(=O)[C@@H](C)NC(=O)[C@H](CC(C)C)NC(=O)[C@H](C)NC1=O: 20%
- CC(=O)N[C@@H](CCCNC(=N)N)C(=O)N[C@H]1CSSC[C@@H](C(N)=O)NC(=O)[C@@H]2CCCN2C(=O)[C@H](CCCNC(=N)N)NC(=O)[C@H](Cc2ccc(O)cc2)NC(=O)[C@H](C(C)C)NC(=O)[C@H](CCCNC(=N)N)NC(=O)CNC(=O)[C@H](CC(C)C)NC(=O)[C@H](C)NC1=O [compound 4] (Ac-RCALGRVYRPC-NH2; disulfide 2-11): 42%

* * *

Target: human MCH-1R (Homo sapiens, UniProt Q99705)
Assay: Aequorin bioluminescence functional assay, MCH-1R
pEC50: −log10 of the molar value. Where a SMILES comes first, the peptide text is derived from it. Bridges are numbered along the chain shown (N, C = ends). [ ]: non-standard residue; d: D form. hArg = N=C(N)NCCCC[C@H](N)C(=O)O
metric: pEC50

* CCCC[C@@H]1NC(=O)CNC(=O)[C@H](CC(C)C)NC(=O)[C@H](CCSC)NC(=O)[C@@H](NC(=O)[C@H](CCCNC(=N)N)NC(C)=O)CSSC[C@@H](C(N)=O)NC(=O)[C@@H]2CCCN2C(=O)[C@H](CCCNC(=N)N)NC(=O)[C@H](Cc2ccc(O)cc2)NC(=O)[C@H](C(C)C)NC1=O | < 6.00
* CSCC[C@@H]1NC(=O)[C@@H](NC(=O)[C@H](CCCNC(=N)N)NC(C)=O)CSSC[C@@H](C(N)=O)NC(=O)[C@@H]2CCCN2C(=O)[C@H](CCCNC(=N)N)NC(=O)[C@H](Cc2ccc(O)cc2)NC(=O)[C@H](C(C)C)NC(=O)[C@H](CCCNC(=N)N)NC(=O)[C@@H](Cc2ccccc2)NC(=O)[C@H](CC(C)C)NC1=O | < 5.00
* CSCC[C@@H]1NC(=O)[C@@H](NC(=O)[C@H](CCCNC(=N)N)NC(C)=O)CSSC[C@@H](C(N)=O)NC(=O)[C@@H]2CCCN2C(=O)[C@H](CCCNC(=N)N)NC(=O)[C@H](Cc2ccc(O)cc2)NC(=O)[C@H](C(C)C)NC(=O)[C@H](CCCCNC(=N)N)NC(=O)[C@@H](C)NC(=O)[C@H](CC(C)C)NC1=O [compound 36] (Ac-RCML[dA][hArg]VYRPC-NH2; disulfide 2-11) | < 5.00
* CSCC[C@@H]1NC(=O)[C@@H](NC(=O)[C@@H](N)CCCNC(=N)N)CSSC[C@@H](C(N)=O)NC(=O)[C@@H]2CCCN2C(=O)[C@H](CCCNC(=N)N)NC(=O)[C@H](Cc2ccc(O)cc2)NC(=O)[C@H](C(C)C)NC(=O)[C@H](CCCNC(=N)N)NC(=O)CNC(=O)[C@H](CC(C)C)NC1=O | 7.85
* CSCC[C@@H]1NC(=O)[C@@H](NC(=O)[C@H](CCCNC(=N)N)NC(C)=O)CSSC[C@@H](C(N)=O)NC(=O)[C@@H]2CCCN2C(=O)[C@H](CCCNC(=N)N)NC(=O)[C@H](Cc2ccc(O)cc2)NC(=O)[C@H](C(C)C)NC(=O)[C@H](CCCNC(=N)N)NC(=O)[C@@H](CC2CCCCC2)NC(=O)[C@H](CC(C)C)NC1=O | < 5.00
* CSCC[C@@H]1NC(=O)[C@@H](NC(=O)[C@H](CCCNC(=N)N)NC(C)=O)CSSC[C@@H](C(N)=O)NC(=O)[C@@H]2CCCN2C(=O)[C@H](CCCNC(=N)N)NC(=O)[C@H](Cc2ccc(O)cc2)NC(=O)[C@H](C(C)C)NC(=O)[C@H](C)NC(=O)CNC(=O)[C@H](CC(C)C)NC1=O [compound 23] (Ac-RCMLGAVYRPC-NH2; disulfide 2-11) | < 5.00

* * *

Molecular target: human MCH-R2 (Homo sapiens)
Sequence (Q969V1 whole entry): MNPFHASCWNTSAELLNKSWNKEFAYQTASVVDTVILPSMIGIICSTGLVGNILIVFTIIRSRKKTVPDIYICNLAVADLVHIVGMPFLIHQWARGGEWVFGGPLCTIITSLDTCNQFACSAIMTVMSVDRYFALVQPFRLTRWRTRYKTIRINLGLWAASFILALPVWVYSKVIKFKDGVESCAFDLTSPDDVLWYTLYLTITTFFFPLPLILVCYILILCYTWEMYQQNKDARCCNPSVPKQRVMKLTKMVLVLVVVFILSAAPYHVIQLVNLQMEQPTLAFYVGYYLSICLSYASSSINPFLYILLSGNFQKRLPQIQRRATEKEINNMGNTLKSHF
Assay: Aequorin bioluminescence functional assay, MCH-2R
Details: Table 1; % Activation at 10 μM, aequorin functional assay
Where a SMILES comes first, the peptide text is derived from it. Bridges are numbered along the chain shown (N, C = ends). [ ]: non-standard residue; d: D form. hArg = N=C(N)NCCCC[C@H](N)C(=O)O
metric: MCH-2R Activation % (%)

• CC(=O)N[C@@H](CCCNC(=N)N)C(=O)N[C@H]1CSSC[C@@H](C(N)=O)NC(=O)[C@@H]2CCCN2C(=O)[C@H](CCCNC(=N)N)NC(=O)[C@H](Cc2ccc(O)cc2)NC(=O)[C@H](C(C)C)NC(=O)[C@H](CCCNC(=N)N)NC(=O)CNC(=O)[C@H](CC(C)C)NC(=O)[C@H](C)NC1=O [compound 4] (Ac-RCALGRVYRPC-NH2; disulfide 2-11) = 104
• CSCC[C@@H]1NC(=O)[C@@H](NC(=O)[C@H](CCCNC(=N)N)NC(C)=O)CSSC[C@@H](C(N)=O)NC(=O)[C@@H]2CCCN2C(=O)[C@H](CCCNC(=N)N)NC(=O)[C@H](Cc2ccc(O)cc2)NC(=O)[C@H](C(C)C)NC(=O)[C@H](CCCCNC(=N)N)NC(=O)[C@@H](C)NC(=O)[C@H](CC(C)C)NC1=O [compound 36] (Ac-RCML[dA][hArg]VYRPC-NH2; disulfide 2-11) = 74
• CSCC[C@@H]1NC(=O)[C@@H](NC(=O)[C@H](CCCNC(=N)N)NC(C)=O)CSSC[C@@H](C(N)=O)NC(=O)[C@@H]2CCCN2C(=O)[C@H](CCCNC(=N)N)NC(=O)[C@H](Cc2ccccc2)NC(=O)[C@H](C(C)C)NC(=O)[C@H](CCCNC(=N)N)NC(=O)CNC(=O)[C@H](CC(C)C)NC1=O = 94
• CC(=O)N[C@@H](CCCNC(=N)N)C(=O)N[C@H]1CSSC[C@@H](C(N)=O)NC(=O)[C@@H]2CCCN2C(=O)[C@H](CCCNC(=N)N)NC(=O)[C@H](Cc2ccc(O)cc2)NC(=O)[C@H](C(C)C)NC(=O)[C@H](CCCCNC(=N)N)NC(=O)[C@@H](C)NC(=O)[C@H](CC(C)C)NC(=O)[C@H](C)NC1=O = 49
• CSCC[C@@H]1NC(=O)[C@@H](NC(=O)[C@H](CCCNC(=N)N)NC(C)=O)CSSC[C@@H](C(N)=O)NC(=O)[C@@H]2CCCN2C(=O)[C@H](CCCNC(=N)N)NC(=O)[C@H](Cc2ccc(O)cc2)NC(=O)[C@H](C(C)C)NC(=O)[C@H](CCCNC(=N)N)NC(=O)[C@@H](Cc2ccccc2)NC(=O)[C@H](CC(C)C)NC1=O = 102
• CSCC[C@@H]1NC(=O)[C@@H](NC(=O)[C@H](CCCNC(=N)N)NC(C)=O)CSSC[C@@H](C(N)=O)NC(=O)[C@@H]2CCCN2C(=O)[C@H](CCCNC(=N)N)NC(=O)[C@H](Cc2ccc(O)cc2)NC(=O)[C@H](C(C)C)NC(=O)[C@H](CCCNC(=N)N[N+](=O)[O-])NC(=O)CNC(=O)[C@H](CC(C)C)NC1=O = 39
• CSCC[C@@H]1NC(=O)[C@@H](NC(=O)[C@H](CCCNC(=N)N)NC(C)=O)CSSC[C@@H](C(N)=O)NC(=O)[C@@H]2CCCN2C(=O)[C@H](CCCNC(=N)N)NC(=O)[C@H](Cc2ccc(O)cc2)NC(=O)[C@H](C(C)C)NC(=O)[C@H](CCCNC(=N)N)NC(=O)[C@H](C)NC(=O)[C@H](CC(C)C)NC1=O = 97
• CSCC[C@@H]1NC(=O)[C@@H](NC(=O)[C@H](CCCNC(=N)N)NC(C)=O)CSSC[C@@H](C(N)=O)NC(=O)[C@@H]2CCCN2C(=O)[C@H](CCCNC(=N)N)NC(=O)[C@H](Cc2ccc(O)cc2)NC(=O)[C@H](C(C)C)NC(=O)[C@H](CCCNC(=N)N)NC(=O)[C@H](CC(C)C)NC(=O)[C@H](CC(C)C)NC1=O = 80
• CSCC[C@@H]1NC(=O)[C@@H](NC(=O)[C@H](CCCNC(=N)N)NC(C)=O)CSSC[C@@H](C(N)=O)NC(=O)[C@@H]2CCCN2C(=O)[C@H](CCCNC(=N)N)NC(=O)[C@H](Cc2ccc(O)cc2)NC(=O)[C@H](C(C)C)NC(=O)[C@H](CCCNC(=N)N)NC(=O)[C@H](CO)NC(=O)[C@H](CC(C)C)NC1=O = 95
• CSCC[C@@H]1NC(=O)[C@@H](NC(=O)[C@H](CCCNC(=N)N)NC(C)=O)CSSC[C@@H](C(N)=O)NC(=O)[C@@H]2CCCN2C(=O)[C@H](CCCNC(=N)N)NC(=O)[C@H](Cc2ccc(O)cc2)NC(=O)[C@H](C(C)C)NC(=O)[C@H](CCCCNC(=N)N)NC(=O)CNC(=O)[C@H](CC(C)C)NC1=O = 43
• CCCC[C@@H]1NC(=O)CNC(=O)[C@H](CC(C)C)NC(=O)[C@H](CCSC)NC(=O)[C@@H](NC(=O)[C@H](CCCNC(=N)N)NC(C)=O)CSSC[C@@H](C(N)=O)NC(=O)[C@@H]2CCCN2C(=O)[C@H](CCCNC(=N)N)NC(=O)[C@H](Cc2ccc(O)cc2)NC(=O)[C@H](C(C)C)NC1=O = 34
• CSCC[C@@H]1NC(=O)[C@@H](NC(=O)[C@H](CCCNC(=N)N)NC(C)=O)CSSC[C@@H](C(N)=O)NC(=O)[C@@H]2CCCN2C(=O)[C@H](CCCNC(=N)N)NC(=O)[C@H](Cc2ccc(O)cc2)NC(=O)[C@H](C(C)C)NC(=O)[C@H](CCCNC(=N)N)NC(=O)[C@@H](CO)NC(=O)[C@H](CC(C)C)NC1=O = 113
